B1: library; numbered along this chain (parent)
chain: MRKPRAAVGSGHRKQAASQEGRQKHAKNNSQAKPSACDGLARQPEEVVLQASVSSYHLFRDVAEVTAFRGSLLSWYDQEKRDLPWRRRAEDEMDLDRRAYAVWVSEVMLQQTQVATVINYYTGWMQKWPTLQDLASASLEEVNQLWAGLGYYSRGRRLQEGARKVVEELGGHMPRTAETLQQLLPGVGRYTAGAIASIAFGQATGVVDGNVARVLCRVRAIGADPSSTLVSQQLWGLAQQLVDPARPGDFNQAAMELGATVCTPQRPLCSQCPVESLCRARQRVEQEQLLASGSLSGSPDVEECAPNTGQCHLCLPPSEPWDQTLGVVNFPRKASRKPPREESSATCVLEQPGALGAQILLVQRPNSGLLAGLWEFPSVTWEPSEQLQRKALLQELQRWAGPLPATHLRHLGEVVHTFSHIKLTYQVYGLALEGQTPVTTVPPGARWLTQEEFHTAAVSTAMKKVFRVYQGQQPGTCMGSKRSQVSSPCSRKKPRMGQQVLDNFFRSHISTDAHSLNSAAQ

Variants of: B1
EXPERIMENT NOTES: 8OG:A repair function score (normalized; synonymous = 0, nonsense = -1) (normalized log-likelihood score); higher = more repair activity (WT-like);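 note: cells sorted at 72 h after reporter transfection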
APPLIED CONDITIONS: with 8OG:A DNA repair reporter (GFP) in HEK-293 MUTYH KO cells
PROPERTY MEASURED: 8OG:A repair function score

>>> print(df.to_string())
    sequence_change  endpoint_result
 0            R279H          -0.0508
 1            Q110L           -0.353
 2            I359E           -0.818
 3            L369G           -0.359
 4            A391E           -0.106
 5            Q111C           -0.764
 6            H514E          -0.0112
 7            Y425E           -0.544
 8            T308K          -0.0882
 9            E375N           -0.407
10            P225Q           -0.132
11            A513S          0.00165
12            P244W           -0.457
13            M496Q           -0.106
14            R281K            -0.09
15            Q240E           -0.919
16            S231H          -0.0123
17            E178L           -0.106
18            E178A           0.0541
19            W399P           -0.724
20             R98G           -0.574
21            G401D           0.0297
22            R506L          0.00814
23            Q202K           0.0342
24            T455I           0.0349
25            L268Y           -0.046
26            L134Q            -1.24
27            E178C          -0.0388
28             L73F           -0.261
29             L72W           -0.994
30            L411G           -0.531
31             D61P         -0.00103
32            R163D           -0.387
33            N119F           -0.259
34            Y152T           -0.854
35            W103D            -1.19
36            Q472G        -0.000609
37            P320C        -0.000958
38            T260S           -0.104
39            V414T          -0.0984
40            F505Q           0.0246
41            P443C        -9.64e-05
42            V207K           -0.909
43            P129D          -0.0868
44            K493F          -0.0124
45            Q282D           -0.125
46            E385Y         -0.00387
47            P443L            0.058
48            N210Y               -1
49            V458L           -0.294
50            E375C           -0.342
51            L180K           -0.838
52            T440I           -0.117
53            L403Q           0.0753
54            A101C         -0.00146
55            C489I          -0.0718
56            G171Y           -0.628
57            T179A           -0.088
58            L145H           0.0825
59            V414G           -0.649
60            L229R            0.134
61            Q363C           -0.306
62            T380V          -0.0828
63            S459Q           -0.749
64             S55R          -0.0153
65            V211G           -0.791
66            A101V          -0.0177
67            D243A           -0.387
68            I509W         -0.00561
69            G258L            -1.12
70            K337M           -0.112
71            C311F            -0.55
72            Q435L           0.0233
73            D249M           -0.419
74             T66S          -0.0428
75            C272D            -1.28
76             G39N            0.241
77            Q232N          -0.0697
78            A137L            -1.02
79            G372V            -0.75
80            L393N            -1.03
81            Q232Y           -0.106
82            P299A          -0.0132
83            I421R           -0.207
84            Y469D           -0.955
85            E375K           -0.462
86            S335V          -0.0166
87            S227D             0.49
88            C272M            -1.19
89             L95P         -0.00578
90            V218E           -0.985

The values you see were collected from the supplement of paper PMC11908140.
